assayMetric: melting point (°C)
Expressed in °C, but write only the number.

Q: For the compound O=C(c1cccc([N+](=O)[O-])c1)c1nn(-c2ccccc2)/c(=N\Nc2ccccc2)s1 , what melting point is on record?
Result: 184

Q: For the compound O=C(NCc1ccccc1)OCCO , what melting point is on record?
Result: 40

Q: For the compound CC(C)(O)C(=O)c1ccc(OCCO)cc1 , what melting point is on record?
Result: 89

Q: For the compound c1ccn2cccc2c1 , what melting point is on record?
Result: 75

Q: For the compound CCN(CC)c1ccc(C(=O)O)cc1 , what melting point is on record?
Result: 194

Q: For the compound CN(C)c1ccc(C2C(C#N)=C(N)SC(N)=C2c2nc3ccccc3s2)cc1 (centres undefined) , what melting point is on record?
Result: 211

Q: For the compound O=c1[nH]c2c(c(=O)n1C1CCCCC1)CCC2 , what melting point is on record?
Result: 316

Q: For the compound CC(=O)c1ccc(F)cc1O , what melting point is on record?
Result: 31.5

Q: For the compound O=C(O)c1cc([N+](=O)[O-])c(O)c([N+](=O)[O-])c1 , what melting point is on record?
Result: 250

Q: For the compound N#CC(=Cc1ccc([N+](=O)[O-])cc1)C(N)=S , what melting point is on record?
Result: 311

Q: For the compound OC1(c2ccc(Cl)c(C(F)(F)F)c2)CCN(CCCC(c2ccc(F)cc2)c2ccc(F)cc2)CC1 , what melting point is on record?
Result: 106

Q: For the compound CCC(=O)C=Cc1ccccc1 , what melting point is on record?
Result: 38.5

Q: For the compound FC(F)(F)c1nn(CN2CCCCC2)c(=S)n1N=Cc1ccc2c(c1)OCO2 , what melting point is on record?
Result: 122

Q: For the compound Nc1cc(F)c(Br)cc1F , what melting point is on record?
Result: 75

Q: For the compound C=CC1(C)OC(=O)N(c2cc(Cl)cc(Cl)c2)C1=O (centres undefined) , what melting point is on record?
Result: 108

Q: For the compound c1ccc2c(c1)ccc1c3ccccc3sc21 , what melting point is on record?
Result: 189

Q: For the compound COC(=O)NC1C(O)OC(CO)C(O)C1O (centres undefined) , what melting point is on record?
Result: 196

Q: For the compound O=[N+]([O-])c1cc([N+](=O)[O-])c(C=C(Cl)c2ccccc2)cc1C=C(Cl)c1ccccc1 , what melting point is on record?
Result: 145

Q: For the compound Cc1cc2ccccc2nc1C , what melting point is on record?
Result: 68.5

Q: For the compound O=C1CC(=O)CC(c2ccccc2)C1 , what melting point is on record?
Result: 188

Q: For the compound Clc1n[nH]c2ccccc12 , what melting point is on record?
Result: 149

Q: For the compound ClC(Cl)=CBr , what melting point is on record?
Result: -88.5
